# system: Coa-F (Coa 311-505) (Staphylococcus aureus strain Newman, UniProt P08515 1-218 = GST)
# Sequence (P08515 whole entry): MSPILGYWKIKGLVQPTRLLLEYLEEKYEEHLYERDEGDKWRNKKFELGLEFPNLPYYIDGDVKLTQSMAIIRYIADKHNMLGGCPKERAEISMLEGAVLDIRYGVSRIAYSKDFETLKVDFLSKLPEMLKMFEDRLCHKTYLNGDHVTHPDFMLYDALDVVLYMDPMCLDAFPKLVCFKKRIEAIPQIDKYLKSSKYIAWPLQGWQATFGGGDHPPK
# experimentalDetails: apparent Kd from half-maximal binding in ELISA (GraphPad Prism)
Measured Kd of individual entries
Kindly format the answer as number then unit.

Reference set, count: 2
{"columns": ["binder", "Kd"],
 "data": [
  ["FBE5-D9 (scFv, V domains shown) VH: QVQLVESGGGVVQPGRSLRLSCAASGFTFSSYGMHWVRQAPGKGLEWVAVISYDGSNKYYADSVKGRFTISRDNSKNTLYLQMNSLRAEDTAVYYCAKNQEWLVPGYWGQGTLVTVSS VL: QSALTQPASVSGSPGQSITISCTGTSSDVGGYNYVSWYQQHPGKAPKLMIYDVSNRPSGVSNRFSGSKSGNTASLTISGLQAEDEADYYCSSYTSSSTLVFGGGTKLTVL", "536 pM"],
  ["FBE5-B9 (scFv, V domains shown) VH: EVQLVESRGGVVQPGRSLRLSCAASGFTFSSYGMHWVRQAPGRGLEWVAVISYDGSNKYYADSVKGRFTISRDNSKNTLYLQMNGLRSDDTAVYYCARGGDDYGDYFDYWGQGTLVTVSS VL: QSVLTQPPSVSAAPGQKVTISCSGSSSNIGNNYVSWYQQLPGTAPKLLIYDNNKRPSGIPDRFSGSKSGTSATLGITGLQTGDEADYYCGTWDSSLSAAVFGGGTKLTVL", "1120 pM"]
]}

Now turn to the next binder.
### Prompt Please look up its Kd: FBE5-F11 (scFv, V domains shown) VH: QVQLQESGGGVVQPGRSLRLSCAASGFTFSSYGMHWVRQAPGKGLEWVAVISYDGSNKYYADSVKGRFTISRDNSKNTLYLQMNSLRAEDTAVYYCAKDLASSGFDYWGQGTLVTVSS VL: QSVLTQPPSVSAAPGQKVTISCSGSSSNIGNNYVSWYQQLPGTAPKLLIYDNNKRPSGIPDRFSGSKSGTSATLGITGLQTGDEADYYCGTWDSSLSAEVFGGGTKLTVL
### Response 244 pM
